- ASSAY TARGET: Homeobox protein Hox-A13 (Mus musculus)
- EXPERIMENT: inhibitors of HoxA13-DNA binding, primary screen, biochemical, fluorescence polarization, labeled oligonucleotide (AID 1185)
- APPLIED CONDITIONS: 15 min, higher = more signal, called active from +8 up or from −8 down
OUTCOME MEASURE: z-score
Just the number, please.

Worked examples follow.
COMPOUND: CCN1C(=O)[C@H]2[C@H]3[C@H](O)[C@H](O)CC(=NO[C@H](C)c4cn([C@@H]5COC[C@H]5O)nn4)[C@@H]3CC[C@H]2C1=O
RESULT VALUE: -0.803

COMPOUND: CC(CCN1CCCCc2nc(C)c(C)cc21)=NOC[C@@H](O)[C@H]1O[C@@H]2OC(C)(C)O[C@@H]2[C@H]1O
RESULT VALUE: -1.75

COMPOUND: CCN1C(=O)[C@H]2[C@H]3[C@H](O)[C@H](O)CC(=NO[C@H](C)c4cn([C@H](CO)Cc5ccccc5)nn4)[C@@H]3CC[C@H]2C1=O
RESULT VALUE: -2.36

COMPOUND: O=C1C[C@@H](O)[C@@H](O)[C@@H]2[C@@H]3C(=O)N(c4ccc(F)cc4F)C(=O)[C@@H]3CC[C@H]12
RESULT VALUE: -0.55

COMPOUND: CCOC(=O)[C@H](CC(C)C)NC(=O)CCC1CC(OC(=O)NCCc2ccc(F)cc2)CC2(CCCC(COC(=O)NCc3cccc4ccccc34)O2)O1 (some centres not stated)
RESULT VALUE: -5.81

z-score for C#CCCCON=C1C[C@@H](O)[C@@H](O)[C@@H]2[C@@H]3C(=O)N(C4CCCCC4)C(=O)[C@@H]3CC[C@@H]12 is -4.64

z-score for O=C(NN=C1C[C@@H](O)[C@@H](O)[C@@H]2[C@@H]3C(=O)N(Cc4ccc5c(c4)OCO5)C(=O)[C@@H]3CC[C@@H]12)OCc1ccccc1 is -3.09
